Biological target: Peroxisome proliferator-activated receptor gamma (Homo sapiens) (UniProt P37231)
Sequence (P37231 whole entry, looked up): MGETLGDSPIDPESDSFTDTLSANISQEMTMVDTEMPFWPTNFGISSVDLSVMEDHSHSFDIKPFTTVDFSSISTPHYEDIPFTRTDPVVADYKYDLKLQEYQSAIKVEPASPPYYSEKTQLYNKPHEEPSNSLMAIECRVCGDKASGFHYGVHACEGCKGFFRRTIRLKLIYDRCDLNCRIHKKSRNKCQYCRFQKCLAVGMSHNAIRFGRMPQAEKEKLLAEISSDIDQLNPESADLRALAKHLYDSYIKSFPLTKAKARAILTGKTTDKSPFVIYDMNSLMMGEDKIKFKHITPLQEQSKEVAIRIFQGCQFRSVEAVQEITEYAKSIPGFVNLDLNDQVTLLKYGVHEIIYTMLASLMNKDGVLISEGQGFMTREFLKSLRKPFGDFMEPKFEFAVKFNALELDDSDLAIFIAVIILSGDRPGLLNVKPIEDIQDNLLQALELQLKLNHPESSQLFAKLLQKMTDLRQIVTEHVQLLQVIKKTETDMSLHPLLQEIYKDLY
Assay: partial agonism at human PPARgamma receptor – cell-based, luciferase reporter, luminescence, primary screen (AID 504452);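 further: Cos-1 cells carrying PPARgamma and a response element luciferase reporter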
Conditions: cell-based PPARg luciferase reporter, at 5 µM, stronger effect = higher value; measured here: relative to full agonist control
Rule: activation (% of full agonist control) under 30% gives label 0, otherwise label 1.

Some solved cases for reference:
COMPOUND	DISCRETE LABEL
O=C(Cn1c(=O)c(=O)n(Cc2ccccc2)c2ccc(Cl)cc21)NCC1CCCO1 (stereo not given)	label 1
O=C(CCCCCNC(=O)N1CCn2c1nc1ccccc12)N[C@@H](Cc1ccccc1)C(=O)O	label 1
Cc1ccc(C)c(S(=O)(=O)NCC(c2ccco2)N2CCc3ccccc3C2)c1 (stereo not given)	label 0
Cc1cc(C)c2nc(N3C(=O)C(O)=C(C(=O)c4ccco4)C3c3ccco3)sc2c1 (stereo not given)	label 1
COc1ccc(N(CC(=O)N2c3ccccc3CC2C)S(=O)(=O)c2c(C)nn(C)c2C)cc1 (stereo not given)	label 1
Cc1ccc(C(=O)NCc2cccc(C(F)(F)F)c2)cc1S(=O)(=O)N1CCCCC1	label 0

Please tell me: is the compound COc1ccc2c(c1)c(CCN1C(=O)c3ccccc3C1=O)cn2C(=O)c1ccco1 at or over 30% in terms of activation (% of full agonist control)?
label 0

Say whether O=C(CNC(=O)c1nc[nH]c1C(=O)N1CCc2ccccc2C1)OCc1ccccc1 shows activation (% of full agonist control) of 30% or more.
label 1

For this compound, is measured activation (% of full agonist control) 30% or higher? O=C(O)COc1ccccc1/C=C1\SC(=S)N(NC(=O)c2ccccc2O)C1=O
label 1

Determine whether measured activation (% of full agonist control) meets or exceeds 30% for COc1ccc(O)c(C(=O)c2cc(C#N)c(=O)n(CC3CCCO3)c2)c1 (stereo not given)
label 1

For this compound, is measured activation (% of full agonist control) 30% or higher? Cc1ccc2nc(N3C(=O)C(O)=C(C(=O)c4ccco4)C3c3ccc(C)o3)sc2c1 (stereo not given)
label 1

activation (% of full agonist control) >= 30% for Cc1nc2c(sc(=S)n2Cc2ccco2)c(=O)n1CC(=O)Nc1cc(F)ccc1F ?
label 1

Given the entry O=c1[nH]c2cc3c(cc2cc1CN(CCN1CCOCC1)C(=S)NCC1CCCO1)OCO3 (stereo not given) , answer whether its activation (% of full agonist control) meets or surpasses 30%.
label 0

Is the recorded value of activation (% of full agonist control) equal to or greater than 30% for this compound? O=C1C2CCCN2c2ccc(S(=O)(=O)N3CCOCC3)cc2N1Cc1cccc(C(F)(F)F)c1 (stereo not given)
label 1

Please check the record COc1cc(C2/C(=C(/O)c3ccccc3)C(=O)C(=O)N2c2ccccn2)ccc1O (stereo not given) and state if its activation (% of full agonist control) is at or above 30%.
label 0

I'd appreciate it if you could say whether O=C(c1ccccc1)c1ccc(NCCCn2ccnc2)c([N+](=O)[O-])c1 has activation (% of full agonist control) at least equal to 30%.
label 0

Check if activation (% of full agonist control) >= 30% (inclusive). Item: O=C(C1=C(O)C(=O)N(c2nc3ccc(Cl)cc3s2)C1c1ccco1)c1ccco1 (stereo not given)
label 1

Please check the record COC(=O)c1ccc(NC(=O)C(=O)c2cn(CC(=O)N3CCOCC3)c3ccccc23)cc1 and state if its activation (% of full agonist control) is at or above 30%.
label 1

Answer whether activation (% of full agonist control) of O=C1C(=O)N(Cc2ccccc2)C(c2cccc(O)c2)/C1=C(\O)c1ccc2c(c1)OCCO2 (stereo not given) is greater than or equal to 30%.
label 0

---

Measured activation (% of partial agonist control) of individual entries
Target: Peroxisome proliferator-activated receptor gamma (Homo sapiens)
Experiment: partial agonism at human PPARgamma receptor – cell-based, luciferase reporter, luminescence, primary screen (AID 504452);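 further: Cos-1 cells carrying PPARgamma and a response element luciferase reporter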
Conditions: cell-based PPARg luciferase reporter, at 5 µM, stronger effect = higher value
Activity calls are given as the source filed them. Rule as the data show it: active = activation above about 85%; inactive = the rest.

In the examples that follow, each entry is paired with its recorded activation (% of partial agonist control).
COMPOUND	READING
O=S(=O)(NCC(c1ccco1)N1CCc2ccccc2C1)c1ccc(F)cc1 (stereo not drawn)	66.1% (inactive)
CC(=O)Nc1cccc(-n2c(=O)n(Cc3ccccc3)c(=O)c3[nH]cnc32)c1	81.1% (inactive)
O=C(NC(Cc1c[nH]c2ccccc12)C(=O)O)/C(=C/c1ccc(F)cc1)NC(=O)c1ccccc1 (stereo not drawn)	71.2% (inactive)
COCCn1cnc2c1c(=O)n(Cc1cc(C(C)=O)ccc1OC)c(=O)n2Cc1ccccc1	88.2% (active)
CN1C(=O)COc2ccc(C(=O)c3oc4ccccc4c3-c3cnc4c(c3)COc3ccccc3-4)cc21	18.3% (inactive)
COc1ccc(NC(=O)C(=O)c2cn(CC(=O)N3CCCC3)c3ccccc23)c(OC)c1	72.7% (inactive)
CCOc1cc(N2CCOCC2)c(OCC)cc1NC(=O)c1oc2ccccc2c1C	65.1% (inactive)
COc1ccc(C)c2sc(N(CCCN(C)C)C(=O)CS(=O)(=O)c3ccc(F)cc3)nc12	69.1% (inactive)

Identify the reported activation (% of partial agonist control) for the following entry. Cc1ccc2nc(N3C(=O)C(O)=C(C(=O)c4ccc(C)o4)C3c3ccco3)sc2c1 (stereo not drawn)
101% (active)

Note down activation (% of partial agonist control) recorded for C[C@H](NC(=O)c1nc[nH]c1C(=O)N1CCc2ccccc2C1)C(=O)OCc1ccccc1
65.3% (inactive)

Determine its reported activation (% of partial agonist control): COc1ccc(O)c(C(=O)c2cc(C#N)c(=O)n(-c3ccc(Cl)cc3)c2)c1
88.5% (active)

Assign activation (% of partial agonist control) to the following record: COC(=O)C1=CN(Cc2ccccc2)C=C(C(=O)OC)C1c1ccc(OC)c(OC)c1
57.3% (inactive)

Consider the compound COC(=O)c1sc(N2C(=O)C(=O)/C(=C(/O)c3ccc(C)cc3)C2c2ccco2)nc1C (stereo not drawn) and give its recorded activation (% of partial agonist control).
83.5% (inactive)

---

Molecular target: Peroxisome proliferator-activated receptor gamma (Homo sapiens) (UniProt P37231)
Test: partial agonism at human PPARgamma receptor – cell-based, luciferase reporter, luminescence, primary screen (AID 504452);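 further: Cos-1 cells carrying PPARgamma and a response element luciferase reporter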
Details: cell-based PPARg luciferase reporter, at 5 µM
Calls of active or inactive are those of the source. Cut-off read from the data, not from the text of the source: active = activation above about 85%; inactive = the rest.
Write down the outcome that applies. Available outcomes: active, inactive

COMPOUND	DISCRETE LABEL
O=C(O)COc1ccccc1/C=C1\SC(=S)N(NC(=O)c2ccccc2O)C1=O	active
CCOc1ccc2nc(N3C(=O)C(O)=C(C(=O)c4ccco4)C3c3ccco3)sc2c1 (stereo not given)	active
O=c1[nH]c2cc3c(cc2cc1CN(Cc1ccccc1)Cc1nnnn1Cc1ccco1)OCCO3	inactive
COc1cc(CN2CCCC(N3CCN(c4ccc(F)cc4)CC3)C2)ccc1F (stereo not given)	inactive

Field: next compound
Lab log entry: O=C(NCC(c1ccco1)N1CCc2ccccc2C1)c1cccc(F)c1 (stereo not given) — outcome as called in the assay?
inactive

---

Biological target: Peroxisome proliferator-activated receptor gamma (Homo sapiens)
Assay: partial agonism at human PPARgamma receptor – cell-based, luciferase reporter, luminescence, primary screen (AID 504452);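 further: Cos-1 cells carrying PPARgamma and a response element luciferase reporter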
Conditions: cell-based PPARg luciferase reporter, at 5 µM, stronger effect = higher value; measured here: relative to full agonist control
Label satisfied when activation (% of full agonist control) >= 40%; otherwise not satisfied.

Here's what some known entries look like.
MOLECULE	DISCRETE LABEL
O=C(O)CC(NC(=O)C(c1ccccc1)c1ccccc1)c1ccc(F)cc1 (stereo not given)	not satisfied
COc1ccc2c(c1)c(=O)c(C(=O)c1ccc(F)cc1)cn2CC(=O)Nc1ccc(F)cc1	satisfied
COc1cc(CN2CCN(c3cccc(C)c3C)CC2)cc([N+](=O)[O-])c1O	not satisfied

For the next question, use this molecule.
Could you verify whether the entry COc1cc2c(C(=O)N3CCN(c4ccccc4F)CC3)cn(C)c(=O)c2cc1OC shows activation (% of full agonist control) of no less than 40%?
not satisfied

---

Target: Peroxisome proliferator-activated receptor gamma (Homo sapiens) (UniProt P37231)
Assay: partial agonism at human PPARgamma receptor – cell-based, luciferase reporter, luminescence, primary screen (AID 504452);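 further: Cos-1 cells carrying PPARgamma and a response element luciferase reporter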
Conditions: cell-based PPARg luciferase reporter, at 5 µM, stronger effect = higher value
// activation (% of partial agonist control) lookup, one value per entry
Reply with just the number (in %).

COMPOUND	VALUE UNITS	READING
COc1ccc(-n2c3c(cc(C(=O)NNc4ccccc4C)c2=O)C(=O)CC(C)(C)C3)cc1	%	72.5
O=C(NCCc1c[nH]c2ccccc12)N[C@@H](Cc1ccccc1)C(=O)O	%	73.7
O=C(c1ccccc1)c1ccc(NCCCn2ccnc2)c([N+](=O)[O-])c1	%	59.6
CC(Oc1ccc2c(c1)oc(=O)c1ccccc12)C(=O)NC(Cc1c[nH]c2ccc(O)cc12)C(=O)O (stereo not given)	%	109
O=C(O)CC(NC(=O)C(c1ccccc1)c1ccccc1)c1ccc(F)cc1 (stereo not given)	%	61.3
O=C(NC(Cc1ccccc1)C(=O)N1CCN(c2ccccc2O)CC1)c1ccccc1 (stereo not given)	%	90.2
Cc1cccc(NC(=O)CSc2nc(=O)n(CCN3CCOCC3)c3c2CCCC3)c1C	%	73.2
Cc1nn(Cc2cccc(C(=O)Nc3ccn(Cc4ccccc4F)n3)c2)c(C)c1[N+](=O)[O-]	%	72.6
O=C(OCC1OC(Oc2ccc(O)cc2)C(O)C(O)C1O)c1ccccc1 (stereo not given)	%	21.8

Entry Cc1ccc(-c2nnc(Nc3ccc(O)cc3)c3ccccc23)cc1S(=O)(=O)NCCO needs its activation (% of partial agonist control) filled in; supply it.
91

meta.source: PubChem BioAssay AID504452
